Here we gather IC50 data for SYK kinase (Homo sapiens, UniProt P43405) reported by several publications.

Worked cases, answers included:
{"columns": ["compound", "measure", "measured-value"],
 "data": [
  ["C#Cc1cc(Nc2nccc(Oc3ccc(NC(=O)Nc4cc(C(C)(C)C)nn4-c4ccc(OC)cc4)c4ccccc34)n2)cc(C(=O)NCCOCCOC)c1", "IC50", "34 nM"],
  ["COc1ccc(Nc2nc(N3CCC(CO)CC3)nc3cc[nH]c(=O)c23)cc1C(F)(F)F", "IC50", "8.2 nM"],
  ["CC1(C)C(=O)Nc2cc(Nc3nc4c(N[C@H]5C[C@@H](N)C5)nccn4n3)ccc21", "IC50", "< 100 nM"],
  ["CC1(C)CC(=O)Nc2cc(Nc3nc4c(N5CCCC5c5ccccc5)nccn4n3)ccc21 (stereo not shown)", "IC50", "300 to 3000 nM"],
  ["CN(C)C(=O)C1C2C=CC(C2)C1Nc1nc(Nc2ccc(Cc3ccncc3)cc2)nc2[nH]cnc12 (racemic)", "IC50", "< 10000 nM"],
  ["CC1C(=O)NCCN1c1ncc(-c2cccc(Nc3nccc(C#N)n3)c2)o1 (stereo not shown)", "IC50", "≤ 100 nM"],
  ["CC(=O)NCCNc1nccn2nc(Nc3ccc4c(c3)NC(=O)C4(C)C)nc12", "IC50", "300 to 3000 nM"],
  ["COc1cccc(-c2cc3nccc(Nc4ccc5[nH]ccc5c4C)c3o2)c1OC", "IC50", "300 to 3000 nM"],
  ["COCCCn1cc(Nc2nc(C3CCC3)nc3cn[nH]c23)cn1", "IC50", "10 to 100 nM"],
  ["Nc1cccc(-c2cc3nccc(Oc4ccc(Oc5ccccc5)cc4)c3o2)c1", "IC50", "3000 to 50000 nM"]
]}

Result for "CN(C)c1ccc(-c2cc3nccnc3c(OC[C@@H]3CN(C(=O)CCn4ccnc4)CCO3)n2)cc1" , tested on SYK kinase (Homo sapiens, UniProt P43405), IC50: 283 nM

Result for "COc1cc(Nc2cc(Oc3ccc(NC(=O)Nc4cc(C(C)(C)C)cc(CC(N)=O)c4OC)c4ccccc34)ccn2)cc(C(=O)NCCN2CCOCC2)c1" , tested on SYK kinase (Homo sapiens, UniProt P43405), IC50: > 706 nM

Result for "COc1cc(-c2cc3nccc(-c4ccc5ncccc5c4)c3o2)cc(OC)c1OC" , tested on SYK kinase (Homo sapiens, UniProt P43405), IC50: < 300 nM

Result for "N[C@H]1COCC[C@H]1Nc1nc(-c2cc3n(c2)CCC3=O)c2c(c1F)CNC2=O" , tested on SYK kinase (Homo sapiens, UniProt P43405), IC50: 20 nM

Result for "CN1CCN(c2ccc(Nc3nc(-c4ccc5cn[nH]c5c4)nc4cn[nH]c34)cc2CO)CC1" , tested on SYK kinase (Homo sapiens, UniProt P43405), IC50: < 10 nM

Result for "Cn1cc(-c2nccn3nc(Nc4ccc5c(c4)NC(=O)OC5(C)C)nc23)cn1" , tested on SYK kinase (Homo sapiens, UniProt P43405), IC50: < 100 nM

* * *

Here we gather IC50 data for UniProt:P43405 reported by several publications.

Worked cases, answers included:
{"columns": ["compound", "IC50"],
 "data": [
  ["CC1(C)C(=O)Nc2cc(Nc3nc4c(N5CCCC5c5ccccc5)nccn4n3)ccc21 (stereo not shown)", "0.3 to 3 µM"],
  ["Cc1csc2c(NC3C4C=CC(C4)C3C(N)=O)nc(Nc3ccc4[nH]ccc4c3)nc12 (racemic)", "< 5 µM"],
  ["CC(=O)N1CCN(c2ccc(-c3cc4nccnc4c(OC[C@@H]4CN(S(C)(=O)=O)CCO4)n3)cc2)CC1", "0.015 µM"],
  ["Cn1cc(-c2ccnc3cc(-c4ccc5[nH]ccc5c4)oc23)cn1", "0.3 to 3 µM"],
  ["Cc1cc(Nc2nccc(Oc3ccc(NC(=O)Nc4cc(C(C)C)nn4-c4cccc(OCCN5CCOCC5)c4)c4ccccc34)n2)cc2cn[nH]c12", "< 0.001 µM"],
  ["CN1CCN(c2ccc(-c3cc4nccnc4c(OCC4CCC(=O)NC4)n3)cc2)CC1 (stereo not shown)", "0.172 µM"]
]}

Okay, next one:
Result for "COc1ccc(C(=O)NCCCN)cc1-c1ccnc2cc(-c3cc(OC)c(OC)c(OC)c3)oc12" , tested on UniProt:P43405, IC50: 0.3 to 3 µM

* * *

pIC50: −log10 of the molar value.
Here we gather pIC50 data for SYK kinase (Homo sapiens, UniProt P43405) reported by several publications.

{"columns": ["molecule", "measured-value"],
 "data": [
  ["COc1cc(Nc2ncnc(Nc3ccc4c(n3)NC(=O)C(C)(C)O4)n2)cc(OC)c1OC.Cc1ccc(S(=O)(=O)O)cc1", 7.40]
]}

Result for "c1nn(C2CCOCC2)cc1Nc1nc(C2CCC2)nc2cn[nH]c12" , tested on SYK kinase (Homo sapiens, UniProt P43405), pIC50: 7.00 to 8.00

Result for "CC(C)c1ccnc(Nc2cccc(-c3cnc(N4CCNC(=O)C4(C)C)o3)c2)n1" , tested on SYK kinase (Homo sapiens, UniProt P43405), pIC50: ≥ 7.00

Result for "COc1cc(OCCN)ccc1-c1cc2nccc(-c3cccc(C(=O)NCCO)c3)c2o1" , tested on SYK kinase (Homo sapiens, UniProt P43405), pIC50: 4.30 to 5.52

Result for "Cc1ccc(-n2nc(C(C)(C)C)cc2NC(=O)Nc2ccc(OCc3ccnc(Nc4cnc(CO)cn4)c3)c3ccccc23)cc1" , tested on SYK kinase (Homo sapiens, UniProt P43405), pIC50: < 4.80

Result for "Cn1c(=O)c(Nc2ccc(N3CCOCC3)cn2)cc2c(Cl)c(-c3cc[nH]n3)ccc21" , tested on SYK kinase (Homo sapiens, UniProt P43405), pIC50: 7.99

Result for "N[C@H]1CCCC[C@H]1Nc1nc(CCc2ccccc2)c2c(c1F)CNC2=O" , tested on SYK kinase (Homo sapiens, UniProt P43405), pIC50: 7.00

* * *

Here we gather IC50 data for SYK kinase (Homo sapiens, UniProt P43405) reported by several publications.

{"columns": ["molecule", "IC50"],
 "data": [
  ["CC1(C)C(=O)Nc2cc(Nc3nc4c(N5CC6(C5)NC(=O)NC6=O)nccn4n3)ccc21", "100 to 300 nM"]
]}

Recorded result, "COc1ccc(Nc2nc(-c3cccc(C(=O)Nc4ccc(-c5ncco5)cc4)c3)nc3cn[nH]c23)cc1OC" , IC50: 100 to 1000 nM

Recorded result, "COc1ccc(O)cc1-c1ccnc2cc(-c3cc(OC)c(OC)c(OC)c3)oc12" , IC50: < 300 nM

Recorded result, "CC(=O)N1C[C@H](O)C[C@@H]1c1nc(-c2ccc3c(c2)OCCO3)c2cnc3[nH]ccc3n12" , IC50: 30 to 100 nM

Recorded result, "COc1cc(Nc2cc(Oc3ccc(NC(=O)Nc4cc(C(C)(C)C)cc(CNC(C)=O)c4OC)c4ccccc34)ccn2)cc(OC)c1" , IC50: 95 nM

Recorded result, "OC1CCN(c2ccc(Nc3nc(-c4c(F)cccc4F)nc4cn[nH]c34)cc2)CC1" , IC50: 10 to 100 nM

Recorded result, "Cc1c[nH]c2c(Nc3nc(N[C@@H]4CCOC[C@@H]4N)cc4cn[nH]c(=O)c34)cc(F)cc12" , IC50: 2 nM

Recorded result, "CCNc1ccc(-c2nc([C@H]3C[C@@H](O)CN3C(C)=O)n3c2cnc2[nH]ccc23)cc1" , IC50: 10 to 30 nM

Recorded result, "O=C1C[C@H](COc2nc(-c3ccc(N4CCOCC4)cc3)cc3nccnc23)CN1" , IC50: 57 nM

Recorded result, "COCCOc1ccc(-c2nc([C@H]3C[C@@H](O)CN3C(C)=O)n3c2cnc2[nH]ccc23)cc1" , IC50: 10 to 30 nM

Recorded result, "COc1cc(-c2cc3nccc(-c4ccc(N(C)C)cc4)c3o2)cc(OC)c1OC" , IC50: 3000 to 50000 nM

Recorded result, "COCCCn1cc(Nc2nc(C(C)(C)C)nc3cn[nH]c23)cn1" , IC50: 100 to 1000 nM

Recorded result, "Cn1c(=O)c(Nc2ccc(N3CCOCC3)cc2)nc2ccc(-c3cc[nH]n3)cc21" , IC50: 78 nM

Recorded result, "C#Cc1cc(Nc2nccc(Oc3ccc(NC(=O)Nc4cc(C(C)(C)C)nn4-c4ccc(OC)cc4)c4ccccc34)n2)cc(C(=O)NCCOCCOCCOC)c1" , IC50: 30 nM

Recorded result, "CC(=O)N1CCC(n2cc(Nc3nc(C4CCC4)nc4cn[nH]c34)cn2)CC1" , IC50: 10 to 100 nM

Recorded result, CC1(C)C(=O)Nc2cc(Nc3nc4c(N5CCC(COC=O)C5)nccn4n3)ccc21 (stereo not drawn) , IC50: 100 to 300 nM

Recorded result, "COc1ccc(-c2cc3nccc(-c4cnn(C)c4)c3o2)cc1" , IC50: 300 to 3000 nM

Recorded result, "COc1ccc(-c2cncc3nc(Nc4ccc(N5CCN(C)CC5)c(OC)c4)nn23)cc1" , IC50: < 1000 nM

Recorded result, "CC(C)n1cc(Nc2nc(-c3ncco3)nc3cn[nH]c23)cn1" , IC50: 100 to 1000 nM

Recorded result, "c1nc(-c2nc(Nc3cnn(C4CCOCC4)c3)c3[nH]ncc3n2)co1" , IC50: 100 to 1000 nM
